- TARGET SYSTEM: Runt-related transcription factor 1 (Homo sapiens) + Core-binding factor subunit beta (Homo sapiens) (UniProt Q01196+Q13951)
- Sequence (Q01196 whole entry, looked up, the tested form may be a part): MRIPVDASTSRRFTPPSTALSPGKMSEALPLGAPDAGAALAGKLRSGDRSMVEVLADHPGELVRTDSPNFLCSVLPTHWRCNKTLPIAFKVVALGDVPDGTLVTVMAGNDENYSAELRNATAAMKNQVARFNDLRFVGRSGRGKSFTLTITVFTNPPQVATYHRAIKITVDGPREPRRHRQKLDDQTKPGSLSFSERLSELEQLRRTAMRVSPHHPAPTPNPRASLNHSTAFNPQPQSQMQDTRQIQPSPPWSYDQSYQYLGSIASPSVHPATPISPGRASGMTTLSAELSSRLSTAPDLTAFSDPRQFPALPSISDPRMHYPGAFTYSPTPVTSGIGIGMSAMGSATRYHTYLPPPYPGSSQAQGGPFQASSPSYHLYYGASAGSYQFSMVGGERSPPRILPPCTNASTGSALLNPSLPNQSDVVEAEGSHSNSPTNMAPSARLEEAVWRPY
- Sequence (Q13951 whole entry, looked up, the tested form may be a part): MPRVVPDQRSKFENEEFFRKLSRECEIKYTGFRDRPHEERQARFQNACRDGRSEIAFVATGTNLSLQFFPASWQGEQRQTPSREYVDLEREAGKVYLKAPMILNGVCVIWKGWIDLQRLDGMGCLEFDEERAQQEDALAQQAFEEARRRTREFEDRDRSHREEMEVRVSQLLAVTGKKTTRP
- ASSAY TEXT: disruptors of Runt domain/CBFb-SMMHC interaction – biochemical, FRET, Cerulean-Runt, Venus-CBFb-SMMHC, uHTS, primary screen (AID 1434);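 further: 0% = DMSO wells and 100% = wells with excess untagged CBFb-SMMHC; inhibitors lower the FRET ratio by blocking Runt binding to CBFb-SMMHC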
- EXPERIMENTAL PARAMETERS: Cerulean-Runt/Venus-CBFb-SMMHC FRET ratio 530/480, 1 h; at 20 µM
The campaign covered roughly 220,000 compounds. About 1,600 (0.73%) were called active.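 How the source made its calls: active means mean inhibition across duplicate retests at 20 µM reaching about 50% (limit read from the data); inactive means the rest, inconclusive results apart.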 The entries come from a sample that favours actives as a whole.
Your answer must be one of the following: True = active, False = inactive

Worked set:
| COMPOUND | DISCRETE LABEL |
| --- | --- |
| COc1ccc(OCCCn2cccc2/C=C2/C(=N)N3OC(C)=CC3=NC2=O)cc1 | False |
| CN(C)C(=O)c1nc2ccc(Cl)cn2c1CN1CCN(c2ncccn2)CC1 | False |
| Cc1ccccc1NC(=S)Nc1cccc([N+](=O)[O-])c1 | False |
| COCc1ccc(C(=O)N2CCc3c([nH]c4ccccc34)C2c2ccccn2)s1 (configuration not stated) | False |
| Cc1ccc(S(=O)(=O)c2c(N)n(C)c3nc4ccccc4nc23)cc1 | False |
| CCc1ccc(NC(=O)Nc2ccncc2)cc1 | False |

**Q:** # fetch the recorded call for CCCn1c(N)c(C(=O)CSc2nnc(-c3cccnc3)n2-c2ccc(C)cc2C)c(=O)[nH]c1=O here
**A:** False

**Q:** # fetch the recorded call for CCN(CC)CCn1c(/N=C/c2cc(Br)ccc2O)nc2ccccc21 here
**A:** False

**Q:** # fetch the recorded call for COc1cccc2sc(NNC(=O)c3nc4ccccc4s3)nc12 here
**A:** False

**Q:** # fetch the recorded call for CCOC(=O)c1cc2c(=O)n3ccccc3nc2n(CC(C)C)c1=NC(=O)c1c(-c2c(F)cccc2Cl)noc1C here
**A:** True

**Q:** # fetch the recorded call for COCC(C)OC(=O)c1c(N)n(CCCN2CCOCC2)c2nc3ccccc3nc12 (configuration not stated) here
**A:** True

**Q:** # fetch the recorded call for CC(=O)c1sc(NC(=O)CCCOc2ccccc2C)nc1C here
**A:** False

**Q:** # fetch the recorded call for CCOc1cc(NC(=O)CCl)c(OCC)cc1NC(C)=O here
**A:** False

**Q:** # fetch the recorded call for CCCNC(=O)c1c(N)n(-c2ccc(S(N)(=O)=O)cc2)c2nc3ccccc3nc12 here
**A:** True

**Q:** # fetch the recorded call for Cc1nc2c(c(=O)n1Cc1ccco1)c1nc3ccccc3nc1n2Cc1ccccc1 here
**A:** True

**Q:** # fetch the recorded call for CCOC(=O)c1cc2n(c1N)-c1ccccc1C2=O here
**A:** False

**Q:** # fetch the recorded call for C/C(N)=C(/C#N)C(=O)COC(=O)CNS(=O)(=O)c1ccc(C)cc1 here
**A:** False

**Q:** # fetch the recorded call for CCc1ccc(C2C(C#N)=C(N)N(N(C)C)C3=C2C(=O)CCC3)s1 (configuration not stated) here
**A:** False

**Q:** # fetch the recorded call for Cc1ccc(Nc2nc(N)nc(CN3CCN(Cc4ccccc4)CC3)n2)cc1Cl here
**A:** False

**Q:** # fetch the recorded call for CC(C)(C)OC(=O)c1c(N)n(CCCN2CCCC2=O)c2nc3ccccc3nc12 here
**A:** True

**Q:** # fetch the recorded call for CCc1ccc(NC(=O)CSc2nc3ccccc3c(=O)n2CCN2CCOCC2)cc1 here
**A:** False

**Q:** # fetch the recorded call for C/C(=N/OC(=O)c1c(-c2c(F)cccc2Cl)noc1C)c1cnccn1 here
**A:** False

----------
- TARGET SYSTEM: Runt-related transcription factor 1 (Homo sapiens) + Core-binding factor subunit beta (Homo sapiens) (UniProt Q01196+Q13951)
- ASSAY TEXT: disruptors of Runt domain/CBFb-SMMHC interaction – biochemical, FRET, Cerulean-Runt, Venus-CBFb-SMMHC, uHTS, primary screen (AID 1434);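 further: 0% = DMSO wells and 100% = wells with excess untagged CBFb-SMMHC; inhibitors lower the FRET ratio by blocking Runt binding to CBFb-SMMHC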
- EXPERIMENTAL PARAMETERS: Cerulean-Runt/Venus-CBFb-SMMHC FRET ratio 530/480, 1 h; at 20 µM; stronger effect = higher value
Out of some 220,000 compounds screened, about 1,600 (0.73%) were called active. The sample as a whole holds a higher share of actives than the screen did.
PROPERTY LABEL: inhibition (%)
Reply numerically in %, unit not repeated.

Worked examples follow.
| COMPOUND | inhibition (%) |
| --- | --- |
| CCc1ccc(CNC(=O)C2CC(=O)N(CCc3ccc(C)cc3)C2)cc1 (stereo unspecified) | -1.7 |
| COc1ccc(CCn2c(-c3ccco3)nc3nc4ccccc4nc32)cc1OC | -7.1 |
| CCOC(=O)C1=C(N)N(c2ccc(C)cc2)C2=C(C(=O)CCC2)C1c1cccs1 (stereo unspecified) | -7.1 |
| COCCCn1c(-c2cccs2)nc2nc3ccccc3nc21 | 87.7 |
| Cn1nnc(NC(=S)NC(=O)c2ccccc2)n1 | -0.2 |
| CCN(CC)c1ccc2cc(C(N)=O)/c(=N\NC(=O)c3ccncc3)oc2c1 | -128 |

# context switch: different compound, same inhibition
**Q:** Name the recorded inhibition of the item CCCCN(C(=O)/C=C/c1ccco1)c1c(N)n(CC(C)C)c(=O)[nH]c1=O in your answer.
**A:** 8.5

----------
- TARGET SYSTEM: Runt-related transcription factor 1 (Homo sapiens) + Core-binding factor subunit beta (Homo sapiens) (UniProt Q01196+Q13951)
- ASSAY TEXT: disruptors of Runt domain/CBFb-SMMHC interaction – biochemical, FRET, Cerulean-Runt, Venus-CBFb-SMMHC, uHTS, primary screen (AID 1434);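 further: 0% = DMSO wells and 100% = wells with excess untagged CBFb-SMMHC; inhibitors lower the FRET ratio by blocking Runt binding to CBFb-SMMHC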
- EXPERIMENTAL PARAMETERS: Cerulean-Runt/Venus-CBFb-SMMHC FRET ratio 530/480, 1 h; at 20 µM; stronger effect = higher value
Among all 220,000 compounds or so, about 1,600 (0.73%) were called active. For the sample, actives were picked, then their nearest neighbours and some compounds at random.
PROPERTY LABEL: inhibition (%)
Reply numerically in %, unit not repeated.

| STRUCTURE | inhibition, % |
| --- | --- |
| Cc1ccnc(Nc2nc3ccccc3s2)n1 | -5.4 |
| Cc1ccnc(N2CCC(C(=O)NC3CCCCCC3)CC2)n1 | 0.3 |

**Q:** Name the recorded inhibition of the item CCS(=O)(=O)c1ccc(O)c(NC(=O)COc2ccc(Cl)cc2)c1 in your answer.
**A:** 0.3

**Q:** Name the recorded inhibition of the item Cc1ccccc1NC(=O)c1nn(-c2ccc(F)c(F)c2)ccc1=O in your answer.
**A:** 3.1

**Q:** Name the recorded inhibition of the item CC(=O)c1cc(C#N)c(SCC(=O)Nc2nccs2)nc1C in your answer.
**A:** -3.8

**Q:** Name the recorded inhibition of the item Cc1ccnc(-n2sc3ccccc3c2=O)n1 in your answer.
**A:** 54.6

----------
Measured inhibition by item
- TARGET SYSTEM: Runt-related transcription factor 1 (Homo sapiens) + Core-binding factor subunit beta (Homo sapiens) (UniProt Q01196+Q13951)
- ASSAY TEXT: disruptors of Runt domain/CBFb-SMMHC interaction – biochemical, FRET, Cerulean-Runt, Venus-CBFb-SMMHC, uHTS, primary screen (AID 1434);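 further: 0% = DMSO wells and 100% = wells with excess untagged CBFb-SMMHC; inhibitors lower the FRET ratio by blocking Runt binding to CBFb-SMMHC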
- EXPERIMENTAL PARAMETERS: Cerulean-Runt/Venus-CBFb-SMMHC FRET ratio 530/480, 1 h; at 20 µM; stronger effect = higher value
The campaign covered roughly 220,000 compounds. About 1,600 (0.73%) were called active. The entries come from a sample that favours actives as a whole.
Reply numerically in %, unit not repeated.

Worked examples follow.
| COMPOUND | MEASURED VALUE |
| --- | --- |
| CC(=O)N1CCN(S(=O)(=O)c2cccc(C(=O)NC3CCC(C)CC3)c2)CC1 (configuration not stated) | 4.4 |
| COc1ccc2nc(N3CCCC(O)C3)c(C#N)cc2c1 (configuration not stated) | 65 |
| O=[N+]([O-])c1ccc(N2CCNCC2)cc1NCc1cccnc1 | -3.2 |
| Cc1cccc(NC(=S)NCc2ccc3[nH]c4c(c3c2)CCCC4)c1 | -0.9 |
| Cc1ccc(Cl)cc1NC(=O)c1ccccn1 | -0.3 |
| CCC(C)OC(=O)C(C)Oc1ccc(-c2ccccc2)cc1 (configuration not stated) | -4.2 |
| O=C(CCc1ccccc1)NNc1ccc(F)cc1 | -0.8 |
| COc1cccc(C(=O)Nc2ccc(N3CCCC3)cc2)c1 | 5.7 |
| COC(=O)Cc1cc(=O)oc2c(C)c(O)ccc12 | 77.6 |
| CN1CCN(S(=O)(=O)c2cccc(C(=O)O)c2)CC1 | -1.8 |

**Q:** Name the recorded inhibition of the item COc1cc(C(=O)N[C@@H](C)C(=O)NCc2ccco2)cc(OC)c1OC in your answer.
**A:** -2.9

**Q:** Name the recorded inhibition of the item COc1cc(C(=O)N2C(=O)c3cccc(N)c3C2=O)cc(OC)c1OC in your answer.
**A:** 87.1
